Cited source for all entries: patent US20260242478A1

System: T1, Anti-CD28 scFv (VH - linker 1 - VL) (biotinylated (site not stated))
T1 construct: Biotinylated scFv captured on neutravidin coated plates in the panning ELISA
T1 sequence (scFv, as listed by the source): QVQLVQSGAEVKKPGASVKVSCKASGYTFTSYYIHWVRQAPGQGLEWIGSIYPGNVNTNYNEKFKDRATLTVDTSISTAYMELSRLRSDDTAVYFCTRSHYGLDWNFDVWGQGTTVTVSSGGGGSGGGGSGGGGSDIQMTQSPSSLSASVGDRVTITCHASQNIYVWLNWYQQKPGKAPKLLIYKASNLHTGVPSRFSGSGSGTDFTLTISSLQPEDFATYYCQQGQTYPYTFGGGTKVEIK
Measurement Description: phage ELISA; biotinylated anti-CD28 scFv on neutravidin plate, clonal phage supernatant, anti-M13-HRP;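 also: before the phage were added, wells were pre-incubated with soluble CD28 protein in blocking buffer, or with blocking buffer alone, and were not washed in between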
Measured Attribute: CD28 scFv signal
Lab note: jot down the number only; don't add units.

Req: Bench note: what CD28 scFv signal did MDWCPRNLWAECFS [Phage-379] show?
Resp: 0.538

Req: Could you share which CD28 scFv signal value was measured for LAGCQRDLATVCVI [Phage-383] ?
Resp: 0.229

Req: Give its CD28 scFv signal value. Item: MDWCPSFLWYECFN [Phage-367]
Resp: 1.13
